Compiled literature IC50, tested on Collagenase 3 (Homo sapiens).

Look over these answered cases.
CN(C)C(=O)Cc1csc2nc(C(=O)NCc3ccc4c(c3)NC(=O)CO4)[nH]c(=O)c12 ... < 100 nM
O=C(NO)[C@H]1CN(C(=O)c2ccncc2)CCN1S(=O)(=O)c1cc(F)c(Oc2ccc(Cl)cc2)c(F)c1 ... < 50 nM
O=C1COc2ccc(CNC(=O)c3nc4snnc4c(=O)[nH]3)cc2N1 ... 100 to 20000 nM
N#Cc1ccc(Oc2ccc(S(=O)(=O)N3CCN(C(=O)N4CCOCC4)C[C@@H]3C(=O)NO)cc2F)cc1 ... < 50 nM

# query: IC50 | item "O=C(NO)[C@H]1CN(C(=O)N2CCOCC2)CCN1S(=O)(=O)c1ccc(Oc2ccc(Cl)cc2)c(F)c1" | system: Collagenase 3 (Homo sapiens) < 50 nM

Request - read-out IC50 | tested on Collagenase 3 (Homo sapiens) | molecule "Nc1c(N2CCc3ccc(CNC(=O)c4nc5scc(-c6ccccc6)c5c(=O)[nH]4)cc3C2)c(=O)c1=O" < 100 nM

Identify the measured IC50 of "COCCOC(=O)N1CCN(S(=O)(=O)c2cc(F)c(Oc3ccccc3)c(F)c2)[C@@H](C(=O)NO)C1" for Collagenase 3 (Homo sapiens). < 50 nM

Please provide the recorded IC50 for "O=C(NO)[C@H]1CN(S(=O)(=O)CCN2CCOCC2)CCN1S(=O)(=O)c1cc(F)c(Oc2ccc(Cl)cc2)c(F)c1" , tested on Collagenase 3 (Homo sapiens). 50 to 1000 nM
